Field: log10(IC50). Provide a value for each of the compounds that follow.
assay-protocol: Toxicity in human SK-N-MC cells by MTT method
Type: cell-based
Heads up: the numbers are on a log10 scale; they represent IC50 in µM.

Examples with answers:
[ask] Looking for the measured log10(IC50) of `O=C(O)c1ccc(-n2nc(-c3ccccc3O)nc2-c2ccccc2O)cc1` , can you help?
[reply] 1.31

[ask] Return reported log10(IC50); argument: `CC(=O)N(O)CCCCCNC(=O)CCC(=O)N(O)CCCCCNC(=O)CCC(=O)N(O)CCCCCNC(=O)C12CC3CC(C)(CC(C)(C3)C1)C2`
[reply] 1.97

[ask] Which measured log10(IC50) value corresponds to `CC(=O)N(O)CCCCCNC(=O)CCC(=O)N(O)CCCCCNC(=O)CCC(=O)N(O)CCCCCNC(=O)CC12CC3CC(CC(C3)C1)C2` ?
[reply] 2.22

[ask] Which log10(IC50) is reported for this compound? `CC(=O)N(O)CCCCCNC(=O)CCC(=O)N(O)CCCCCNC(=O)CCC(=O)N(O)CCCCCNC(=O)C12CC3CC(CC(C3)C1)C2`
[reply] 2.24

***
[ask] Find the recorded log10(IC50) belonging to `CC(=O)N(O)CCCCCNC(=O)CCC(=O)N(O)CCCCCNC(=O)CCC(=O)N(O)CCCCCN` and report it.
[reply] 1.20
